src = ChEMBL document CHEMBL2417455

target: Cruzipain (Trypanosoma cruzi) (UniProt P25779)
Sequence (P25779 123-467 limits assumed): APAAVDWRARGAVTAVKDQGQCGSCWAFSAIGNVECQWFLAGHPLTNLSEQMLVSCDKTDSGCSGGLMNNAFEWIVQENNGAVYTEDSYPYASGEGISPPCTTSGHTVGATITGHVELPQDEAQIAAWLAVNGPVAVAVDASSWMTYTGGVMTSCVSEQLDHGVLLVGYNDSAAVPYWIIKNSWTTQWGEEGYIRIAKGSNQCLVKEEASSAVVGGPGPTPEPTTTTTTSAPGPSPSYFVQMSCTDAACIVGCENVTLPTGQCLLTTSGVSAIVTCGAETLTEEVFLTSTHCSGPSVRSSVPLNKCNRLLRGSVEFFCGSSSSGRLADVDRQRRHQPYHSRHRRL
test_protocol: Inhibition of Trypanosoma cruzi cruzain expressed in Escherichia coli DH5-alpha using Bz-Phe-Arg-AMC as substrate at 10 uM preincubated for 5 mins followed by substrate addition measured for 5 mins by spectrofluorimetric analysis relative to control
inhibition by entry:

Some entries whose results are on file:
NC(=S)N/N=C(\CO)c1ccc([N+](=O)[O-])cc1 : 10%
NC(=S)N/N=C(\CNC(=O)CCC(=O)O)c1ccc([N+](=O)[O-])cc1 : 50%
C/C(=N\NC(N)=S)c1ccc([N+](=O)[O-])c(N)c1 : 65%

In plain terms, Br.NC/C(=N\NC(N)=S)c1ccc([N+](=O)[O-])cc1 has a documented inhibition of 20%

In plain terms, NC(=S)N/N=C(\COC(=O)CCC(=O)O)c1ccc([N+](=O)[O-])cc1 has a documented inhibition of 10%

----------
target: Cruzipain (Trypanosoma cruzi) (UniProt P25779)
test_protocol: Inhibition of Trypanosoma cruzi cruzain expressed in Escherichia coli DH5-alpha using Bz-Phe-Arg-AMC as substrate at 10 uM preincubated for 5 mins followed by substrate addition measured for 5 mins by spectrofluorimetric analysis relative to control
Activity calls are given as the source filed them. The rule behind the calls is not given here.
measured_endpoint: inhibition

Some entries whose results are on file:
C/C(=N\NC(N)=S)c1ccc(N)cc1 : 25%
NC/C(=N\NC(N)=S)c1ccccc1 : inactive
C/C(=N\NC(N)=S)c1cccc(N)c1 : inactive
C/C(=N\N=C(/N)S)c1ccccc1 : inactive

In plain terms, C/C(=N\NC(N)=S)c1ccc(N)c([N+](=O)[O-])c1 has a documented inhibition of 55%

In plain terms, C/C(=N\NC(N)=S)c1cccc([N+](=O)[O-])c1 has a documented inhibition of 5%
